Test: Stability in aqueous media (PBS pH 7.4)
Format: physicochemical
Parameters: unit not given here
Conditions: phosphate buffer solution (PBS); PBS pH 7.4, 37° C., samples at T=0, 4, 24, 96 h; read-out: Stability grading (t1/2)
Non-standard residues stand in square brackets, D forms with d. Residues, ends and D or L forms follow the SMILES beside them. dHis(τ-Bn) = N[C@H](Cc1cn(Cc2ccccc2)cn1)C(=O)O; pGlu = O=C1CC[C@@H](C(=O)O)N1

compound	half-life at 0.2 mg/ml
CCNC(=O)[C@@H]1CCCN1C(=O)[C@H](CCCNC(=N)N)NC(=O)[C@H](Cc1c[nH]c2ccccc12)NC(=O)[C@@H](Cc1cn(Cc2ccccc2)cn1)NC(=O)[C@H](Cc1c[nH]cn1)NC(=O)[C@H](CO)NC(=O)[C@H](Cc1c[nH]c2ccccc12)NC(=O)[C@H](Cc1c[nH]cn1)NC(=O)[C@@H]1CCC(=O)N1 [Compound 60] ([pGlu]HWSH[dHis(τ-Bn)]WRP-NHEt)	> 96
NC(=O)CNC(=O)[C@@H]1CCCN1C(=O)[C@H](Cc1ccc(O)cc1)NC(=O)[C@H](Cc1c[nH]c2ccccc12)NC(=O)[C@@H](Cc1c[nH]c2ccccc12)NC(=O)[C@H](Cc1c[nH]cn1)NC(=O)[C@H](CO)NC(=O)[C@H](Cc1c[nH]c2ccccc12)NC(=O)[C@H](Cc1c[nH]cn1)NC(=O)[C@@H]1CCC(=O)N1 [Compound 65] ([pGlu]HWSH[dW]WYPG-NH2)	> 96

----------
As shown below, each of these molecules has a reported activation at 1 µM value.
Target: GnRHR (Homo sapiens, UniProt P30968)
Construct: host or cells: CHO-K1 (CHO-K1/GnRHR/Ga15)
Sequence (P30968 whole entry): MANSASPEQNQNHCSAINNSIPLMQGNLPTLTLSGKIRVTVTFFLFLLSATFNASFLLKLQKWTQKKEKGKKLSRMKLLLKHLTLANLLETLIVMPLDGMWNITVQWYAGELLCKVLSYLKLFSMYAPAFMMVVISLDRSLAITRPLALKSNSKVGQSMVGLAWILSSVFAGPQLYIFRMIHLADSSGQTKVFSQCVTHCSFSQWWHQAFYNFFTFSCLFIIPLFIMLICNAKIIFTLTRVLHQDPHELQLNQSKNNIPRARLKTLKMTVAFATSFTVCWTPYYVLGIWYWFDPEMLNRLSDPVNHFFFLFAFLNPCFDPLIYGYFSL
Test: Calcium assay in CHO-K1 cells (Genscript), FLIPR
Assay type: cell-based
Conditions: CHO-K1/GnRHR/Ga15 cells, relative to agonist control, read-out: GNRHR Stimulation at 1 μM
Non-standard residues stand in square brackets, D forms with d. Residues, ends and D or L forms follow the SMILES beside them. dHis(τ-Bn) = N[C@H](Cc1cn(Cc2ccccc2)cn1)C(=O)O; d2Nal = N[C@H](Cc1ccc2ccccc2c1)C(=O)O; pGlu = O=C1CC[C@@H](C(=O)O)N1

molecule	activation at 1 µM (%)
CCNC(=O)[C@@H]1CCCN1C(=O)[C@H](CCCNC(=N)N)NC(=O)[C@H](CC(C)C)NC(=O)[C@@H](CC(C)C)NC(=O)[C@H](Cc1ccc(O)cc1)NC(=O)[C@H](CO)NC(=O)[C@H](Cc1c[nH]c2ccccc12)NC(=O)[C@H](Cc1c[nH]cn1)NC(=O)[C@@H]1CCC(=O)N1 [Leuprorelin, reference compound]	107
CC(C)C[C@H](NC(=O)[C@@H](Cc1ccc2ccccc2c1)NC(=O)[C@H](Cc1ccc(O)cc1)NC(=O)[C@H](CO)NC(=O)[C@H](Cc1c[nH]c2ccccc12)NC(=O)[C@H](Cc1c[nH]cn1)NC(=O)[C@@H]1CCC(=O)N1)C(=O)N[C@@H](CCCNC(=N)N)C(=O)N1CCC[C@H]1C(=O)NCC(N)=O [Nafarelin, reference compound]	100
CCNC(=O)[C@@H]1CCCN1C(=O)[C@H](CCCNC(=N)N)NC(=O)[C@H](Cc1c[nH]c2ccccc12)NC(=O)[C@@H](Cc1cn(Cc2ccccc2)cn1)NC(=O)[C@H](Cc1c[nH]cn1)NC(=O)[C@H](CO)NC(=O)[C@H](Cc1c[nH]c2ccccc12)NC(=O)[C@H](Cc1c[nH]cn1)NC(=O)[C@@H]1CCC(=O)N1 [Compound 60] ([pGlu]HWSH[dHis(τ-Bn)]WRP-NHEt)	102
N=C(N)NCCC[C@H](NC(=O)[C@H](Cc1c[nH]c2ccccc12)NC(=O)[C@@H](Cc1ccc2ccccc2c1)NC(=O)[C@H](Cc1ccc(O)cc1)NC(=O)[C@H](CO)NC(=O)[C@H](Cc1c[nH]c2ccccc12)NC(=O)[C@H](Cc1c[nH]cn1)NC(=O)[C@@H]1CCC(=O)N1)C(=O)N1CCC[C@H]1C(=O)NCC(N)=O [Compound 24] ([pGlu]HWSY[d2Nal]WRPG-NH2)	87
NC(=O)CNC(=O)[C@@H]1CCCN1C(=O)[C@H](Cc1ccc(O)cc1)NC(=O)[C@H](Cc1c[nH]c2ccccc12)NC(=O)[C@@H](Cc1ccc2ccccc2c1)NC(=O)[C@H](Cc1ccc(O)cc1)NC(=O)[C@H](CO)NC(=O)[C@H](Cc1c[nH]c2ccccc12)NC(=O)[C@H](Cc1c[nH]cn1)NC(=O)[C@@H]1CCC(=O)N1 [Compound 30] ([pGlu]HWSY[d2Nal]WYPG-NH2)	12
N=C(N)NCCC[C@H](NC(=O)[C@H](Cc1c[nH]c2ccccc12)NC(=O)[C@@H](Cc1c[nH]c2ccccc12)NC(=O)[C@H](Cc1ccc(O)cc1)NC(=O)[C@H](CO)NC(=O)[C@H](Cc1c[nH]c2ccccc12)NC(=O)[C@H](Cc1c[nH]cn1)NC(=O)[C@@H]1CCC(=O)N1)C(=O)N1CCC[C@H]1C(=O)NCC(N)=O [Compound 66] ([pGlu]HWSY[dW]WRPG-NH2)	83
N=C(N)NCCC[C@H](NC(=O)[C@H](Cc1c[nH]c2ccccc12)NC(=O)[C@@H](Cc1c[nH]c2ccccc12)NC(=O)[C@H](Cc1c[nH]cn1)NC(=O)[C@H](CO)NC(=O)[C@H](Cc1c[nH]c2ccccc12)NC(=O)[C@H](Cc1c[nH]cn1)NC(=O)[C@@H]1CCC(=O)N1)C(=O)N1CCC[C@H]1C(=O)NCC(N)=O [Compound 20]	75
